Below: a set of entries, each annotated with reported MIC.
assay: Antifungal activity against Cryptococcus neoformans var. neoformans by EUCAST method; type: functional; conditions: Cryptococcus deneoformans
Record the value in µg/mL, omitting the unit from your answer.

# COMPOUND, MIC [µg/mL]
rows = [
    ("CC[C@H](C)C[C@H](C)CCCCCCCCC(=O)N[C@H]1C[C@@H](O)[C@@H](NCCN)NC(=O)[C@@H]2[C@@H](O)CCN2C(=O)[C@H]([C@H](O)CCN)NC(=O)[C@H]([C@H](O)[C@@H](O)c2ccc(O)cc2)NC(=O)[C@@H]2C[C@@H](O)CN2C(=O)[C@H]([C@@H](C)O)NC1=O", 2.04),
]

Lookup: Need MIC of C[C@@H]1[C@H](O)[C@@H](C)/C=C/C=C/C=C/C=C/C=C/C=C/C=C/[C@H](O[C@@H]2O[C@H](C)[C@@H](O)[C@H](N)[C@@H]2O)C[C@@H]2O[C@](O)(C[C@@H](O)C[C@@H](O)[C@H](O)CC[C@@H](O)C[C@@H](O)CC(=O)O[C@H]1C)C[C@H](O)[C@H]2C(=O)O , thanks.
Found: 0.75

Lookup: GET /values?readout=MIC&item= C[C@@H](c1ncncc1F)[C@](O)(Cn1cncn1)c1ccc(F)cc1F
Found: 0.05

====

tested on: Nakaseomyces glabratus; experiment: Antifungal activity against Candida glabrata; type: functional
Let's look at some molecules and their measured MFC.

Lookup: For the molecule shown here, CC[C@@H]([C@H](C)O)n1ncn(-c2ccc(N3CCN(c4ccc(OC[C@@H]5CO[C@@](Cn6cncn6)(c6ccc(F)cc6F)C5)cc4)CC3)cc2)c1=O [POSACONAZOLE] , give the reported MFC.
Found: > 4 µg/mL

Lookup: Would you kindly share the measured MFC for C[C@@H](c1ncncc1F)[C@](O)(Cn1cncn1)c1ccc(F)cc1F [VORICONAZOLE] ?
Found: > 4 µg/mL

Lookup: State the recorded MFC for this entry: CCC(C)n1ncn(-c2ccc(N3CCN(c4ccc(OCC5COC(Cn6cncn6)(c6ccc(Cl)cc6Cl)O5)cc4)CC3)cc2)c1=O (stereo not drawn) [ITRACONAZOLE]
Found: > 4 µg/mL

====

test system: Sporothrix schenckii; assay: Antifungal activity against Sporothrix schenckii; format: functional
MEASURED ENDPOINT: MFC

Recorded MFC, per entry:
# COMPOUND, RESULT VALUE
measured = [
    ("CC[C@H](C)C[C@H](C)CCCCCCCCC(=O)N[C@H]1C[C@@H](O)[C@@H](NCCN)NC(=O)[C@@H]2[C@@H](O)CCN2C(=O)[C@H]([C@H](O)CCN)NC(=O)[C@H]([C@H](O)[C@@H](O)c2ccc(O)cc2)NC(=O)[C@@H]2C[C@@H](O)CN2C(=O)[C@H]([C@@H](C)O)NC1=O [CASPOFUNGIN]", "> 8 µg/mL"),
    ("C[C@@H]1[C@H](O)[C@@H](C)/C=C/C=C/C=C/C=C/C=C/C=C/C=C/[C@H](O[C@@H]2O[C@H](C)[C@@H](O)[C@H](N)[C@@H]2O)C[C@@H]2O[C@](O)(C[C@@H](O)C[C@@H](O)[C@H](O)CC[C@@H](O)C[C@@H](O)CC(=O)O[C@H]1C)C[C@H](O)[C@H]2C(=O)O [AMPHOTERICIN B]", "> 8 µg/mL"),
]

Lookup: Look up MFC with Sporothrix schenckii for this compound: C[C@@H](c1ncncc1F)[C@](O)(Cn1cncn1)c1ccc(F)cc1F [VORICONAZOLE]
Found: > 8 µg/mL
